// provenance: patent US7396837B2

# Test system: K-562
# Test Method Notes: SRB colorimetric cell growth inhibition assay, K-562
# Assay type: cell-based
# Particulars: K-562; cell killing (cytotoxic effect); read-out: LC50 K-562
# Procedure: The finality of these assays is to interrupt the growth of an “in vitro” tumor cell culture by means a continued exhibition of the cells to the sample to be testing. A colorimetric type of assay, using sulforhodamine B (SRB) reaction has been adapted for a quantitative measurement of cell growth and viability (following the technique described by P. A. Skehan, et al., J. Natl. Cancer Inst. 1990, 82, 1107-1112). […] The values for mean +/− SD of data from triplicate wells are calculated. […]
In this section we review reported CC50 values for a set of molecules.
Note: unit nM is implicit; provide only the numeric part.

Solved cases below.
Molecule	CC50 [nM]
COc1cc(-c2c3c4cc(OC)c(OC(=O)[C@H](C)N)cc4oc(=O)c3n3ccc4c(OC(=O)[C@H](C)N)c(OC)c(OC)cc4c23)ccc1OC(=O)[C@H](C)N [Compound 191]	9490
COc1cc(-c2c3c4cc(OC)c(OC(=O)[C@H](C)N)cc4oc(=O)c3n3ccc4cc(O)c(OC)cc4c23)ccc1O.Cl [Compound 240]	2090

Next molecule, CC50 to be filled in.
Look up and state reported CC50 for COc1cc2c(cc1O)oc(=O)c1c2c(-c2ccc(OC(=O)[C@H](C)N)c(OC)c2)c2c3cc(OC)c(O)cc3ccn21.Cl [Compound 238]
1200

----------
# System: LoVo
# Test Method Notes: SRB colorimetric cell growth inhibition assay, LoVo
# Assay type: cell-based
# Particulars: Homo sapiens, LoVo; GI=growth inhibition; read-out: GI50 LOVO
Metric Name: GI50
Provide a numeric answer, followed by its unit.

COc1cc(-c2c3c4cc(OC)c(OC(=O)CCc5ccccc5)cc4oc(=O)c3n3ccc4cc(OC(=O)CCc5ccccc5)c(OC)cc4c23)ccc1OC(=O)CCc1ccccc1 1480 nM
COc1cc2ccn3c(c(-c4ccc(OC(=O)[C@H](C)NC(=O)OC(C)(C)C)c(OC)c4)c4c5cc(OC)c(OC(=O)[C@H](C)NC(=O)OC(C)(C)C)cc5oc(=O)c43)c2cc1OC 11700 nM
COc1cc(-c2c3n(c4c(=O)oc5cc(OC(=O)[C@@H](N)COCc6ccccc6)c(OC)cc5c24)CCc2c-3cc(OC)c(OC)c2OC(=O)[C@@H](N)COCc2ccccc2)ccc1OC(=O)[C@@H](N)COCc1ccccc1 2190 nM

Look up and state reported GI50 for `COc1cc2c(cc1OC)-c1c(-c3ccc(OC(=O)[C@H](C)NC(=O)OC(C)(C)C)c(OC)c3)c3c4cc(OC)c(OC(=O)[C@H](C)NC(=O)OC(C)(C)C)cc4oc(=O)c3n1CC2`
1950 nM

Look up and state reported GI50 for `COc1cc(-c2c3c4cc(OC)c(OC(=O)[C@@H]5CCCN5)cc4oc(=O)c3n3ccc4cc(OC(=O)[C@@H]5CCCN5)c(OC)cc4c23)ccc1OC(=O)[C@@H]1CCCN1`
153 nM

----------
In this section we review reported IC (TGI) values for a set of molecules.
# System: LoVo
# Test Method Notes: SRB colorimetric cell growth inhibition assay, LoVo
# Format: cell-based
# Particulars: Homo sapiens, LoVo; total growth inhibition (cytostatic effect); read-out: TGI LOVO
Note: unit µM is implicit; provide only the numeric part.

COc1cc2c(cc1O)oc(=O)c1c2c(-c2ccc(OC)c(OC)c2)c2c3cc(OC)c(O)cc3ccn21 1.31
COc1cc(-c2c3c4cc(OC)c(OC(=O)[C@H](C)NC(=O)OC(C)(C)C)cc4oc(=O)c3n3ccc4c(OC(=O)[C@H](C)NC(=O)OC(C)(C)C)c(OC)c(OC)cc4c23)ccc1OC(=O)[C@H](C)NC(=O)OC(C)(C)C 9.59
CCCCCCCC(=O)Oc1ccc(-c2c3n(c4c(=O)oc5cc(OC(=O)CCCCCCC)c(OC)cc5c24)CCc2cc(OC(=O)CCCCCCC)c(OC)cc2-3)cc1OC 5.16

Look up and state reported IC (TGI) for `COc1cc(-c2c3c4cc(OC)c(OC(=O)[C@H](N)C(C)C)cc4oc(=O)c3n3ccc4cc(OC(=O)[C@H](N)C(C)C)c(OC)cc4c23)ccc1OC(=O)[C@H](N)C(C)C`
0.42

Look up and state reported IC (TGI) for `COc1cc(-c2c3c4cc(OC)c(O)cc4oc(=O)c3n3ccc4c(N)cccc4c23)ccc1O`
21.3

----------
# Tested on: A-549
# Test Method Notes: SRB colorimetric cell growth inhibition assay, A-549
# Assay type: cell-based
# Particulars: Homo sapiens, A549, A-549; cell killing (cytotoxic effect); read-out: LC50 A-549
In this section we review reported CC50 values for a set of molecules.
Provide a numeric answer, followed by its unit.

Solved cases below.
CC[C@H](C)[C@H](N)C(=O)Oc1ccc(-c2c3c4cc(OC)c(OC(=O)[C@@H](N)[C@@H](C)CC)cc4oc(=O)c3n3ccc4cc(OC(=O)[C@@H](N)[C@@H](C)CC)c(OC)cc4c23)cc1OC 0.713 µM
COc1cc(-c2c3c4cc(OC)c(OC(=O)CCCCCN)cc4oc(=O)c3n3ccc4c(OC(=O)CCCCCN)c(OC)c(OC)cc4c23)ccc1OC(=O)CCCCCN 10.2 µM
COc1cc(-c2c3c4cc(OC)c(OC(=O)[C@H](C)NC(=O)OC(C)(C)C)cc4oc(=O)c3n3ccc4c(OC(=O)[C@H](C)NC(=O)OC(C)(C)C)c(OC)c(OC)cc4c23)ccc1OC(=O)[C@H](C)NC(=O)OC(C)(C)C 9.59 µM

Next molecule, CC50 to be filled in.
Look up and state reported CC50 for `COc1cc(-c2c3n(c4c(=O)oc5cc(OC(=O)[C@@H](N)Cc6c[nH]c7ccccc67)c(OC)cc5c24)CCc2cc(OC(=O)[C@@H](N)Cc4c[nH]c5ccccc45)c(OC)cc2-3)ccc1OC(=O)[C@@H](N)Cc1c[nH]c2ccccc12`
7.13 µM

----------
In this section we review reported CC50 values for a set of molecules.
# System: SK-BR-3
# Test Method Notes: SRB colorimetric cell growth inhibition assay, SK-BR-3
# Format: cell-based
# Particulars: Homo sapiens, SK-BR-3, SK-BR-3; cell killing (cytotoxic effect); read-out: LC50 SK-BR-3
Provide a numeric answer, followed by its unit.

Smiles Data	CC50
C=CCOC(=O)N[C@@H](C)C(=O)Oc1ccc(-c2c3c4cc(OC)c(OC(=O)[C@H](C)NC(=O)OCC=C)cc4oc(=O)c3n3ccc4cc(OC(=O)[C@H](C)NC(=O)OCC=C)c(OC)cc4c23)cc1OC	4.59 µM
COc1cc2c(cc1O)CCn1c-2c(Br)c2c3cc(OC)c(O)cc3oc(=O)c21	21.8 µM
COc1cc(-c2c3c4cc(OC)c(OC(=O)CCC5CCCCC5)cc4oc(=O)c3n3ccc4cc(OC(=O)CCC5CCCCC5)c(OC)cc4c23)ccc1OC(=O)CCC1CCCCC1	10.9 µM
COc1cc(-c2c3n(c4c(=O)oc5cc(OC(=O)[C@@H](N)Cc6c[nH]c7ccccc67)c(OC)cc5c24)CCc2cc(OC(=O)[C@@H](N)Cc4c[nH]c5ccccc45)c(OC)cc2-3)ccc1OC(=O)[C@@H](N)Cc1c[nH]c2ccccc12	5.58 µM
COc1cc(-c2c3c4cc(OC)c(OC(=O)[C@H](N)C(C)C)cc4oc(=O)c3n3ccc4cc(OC(=O)[C@H](N)C(C)C)c(OC)cc4c23)ccc1OC(=O)[C@H](N)C(C)C	1.22 µM

Look up and state reported CC50 for `COc1cc2ccn3c(c(-c4ccc(OC(=O)[C@H](C)N)c(OC)c4)c4c5cc(OC)c(OC(=O)[C@H](C)N)cc5oc(=O)c43)c2cc1OC`
15.3 µM

Look up and state reported CC50 for `CCCCCCCC(=O)Oc1ccc(-c2c3n(c4c(=O)oc5cc(OC(=O)CCCCCCC)c(OC)cc5c24)CCc2cc(OC(=O)CCCCCCC)c(OC)cc2-3)cc1OC`
11.4 µM

Look up and state reported CC50 for `COc1cc(-c2c3c4cc(OC)c(OC(=O)[C@@H]5CCCN5)cc4oc(=O)c3n3ccc4cc(OC(=O)[C@@H]5CCCN5)c(OC)cc4c23)ccc1OC(=O)[C@@H]1CCCN1`
1.19 µM

----------
# System: LoVo
# Test Method Notes: SRB colorimetric cell growth inhibition assay, LoVo
# Format: cell-based
# Particulars: Homo sapiens, LoVo; GI=growth inhibition; read-out: GI50 LOVO
In this section we review reported log10(GI50) values for a set of compounds.
Recorded GI50 (log10, nM)

Solved cases below.
Compound	log10(GI50)
COc1cc(-c2c3c4cc(OC)c(OC(=O)[C@H](C)NC(=O)OC(C)(C)C)cc4oc(=O)c3n3ccc4c(OC(=O)[C@H](C)NC(=O)OC(C)(C)C)c(OC)c(OC)cc4c23)ccc1OC(=O)[C@H](C)NC(=O)OC(C)(C)C [Compound 97]	3.72
COc1cc(-c2c3c4cc(OC)c(OC(=O)[C@@H](N)Cc5ccccc5)cc4oc(=O)c3n3ccc4cc(OC(=O)[C@@H](N)Cc5ccccc5)c(OC)cc4c23)ccc1OC(=O)[C@@H](N)Cc1ccccc1 [Compound 204]	2.05

Look up and state reported log10(GI50) for COc1cc(-c2c3n(c4c(=O)oc5cc(OC(=O)[C@@H](N)Cc6ccccc6)c(OC)cc5c24)CCc2cc(OC(=O)[C@@H](N)Cc4ccccc4)c(OC)cc2-3)ccc1OC(=O)[C@@H](N)Cc1ccccc1 [Compound 115]
2.85

Look up and state reported log10(GI50) for COc1cc(-c2c3n(c4c(=O)oc5cc(O)c(OC)cc5c24)CCc2cc(O)c(OC)cc2-3)ccc1O [Compound 109]
2.96

Look up and state reported log10(GI50) for COc1cc2ccn3c(c(-c4ccc(OC(=O)[C@H](C)N)c(OC)c4)c4c5cc(OC)c(OC(=O)[C@H](C)N)cc5oc(=O)c43)c2cc1OC [Compound 20]
2.64
